Data credit: the array DNA melting data of Ke et al. (doi:10.1101/2024.01.08.574731)

# experiment_notes: folding enthalpy; higher = less favourable; fluorescence melt of hairpins on a sequencing array, two-state fit
# applied_conditions: sodium 0.088 M
observation_type: folding enthalpy (kcal/mol)
Note: unit kcal/mol is implicit; provide only the numeric part.

Study these solved cases before continuing.
Any idea what folding enthalpy was measured for GAGAATGGAAACATTTTC ((.((((....)))).)) ?
-14.8

Now consider GCGTGTCGAAAGACTCGC (((.(((....))).))) and answer again.
-45.2

Now consider GTAAACTCGAAAGAGTAC (((..(((....)))))) and answer again.
-11.9

Now consider GGTACCGAAAGGTATACC ((((((....)))..))) and answer again.
-15.3

Now consider GTCCAAGGAAACTTGGAC (((((((....))))))) and answer again.
-41.8

Now consider GCCACTGGAAACAGCGAC (.(.(((....))).).) and answer again.
-13.9

Now consider GTGACCCCGAAAGGGCAC (((..(((....)))))) and answer again.
-24.9

Now consider GAATGGCCGAAAGGCTTC (((..(((....)))))) and answer again.
-6.89

Now consider GCAGAGGGAAACCTCTAC (.(((((....))))).) and answer again.
-14.7

Now consider GTGCTGGGAAACCAGCGC (.(((((....))))).) and answer again.
-29.5

Next:
Any idea what folding enthalpy was measured for GATCTTTGGAAAGATC ((((((....)))))) ?
-31.5

Now consider GTAACGCGAAAGCGGTAC (((.(((....))).))) and answer again.
-27.1

Now consider GCGTTAGGAAACTAGCGC (((.(((....))).))) and answer again.
-46.9

Now consider GCATGGCGAAAGCAAGGC ((.(.((....)).).)) and answer again.
-17.2

Now consider GATCCTAGCGAGGATC ((((((....)))))) and answer again.
-32.9

Now consider GACTGGGAAACCAGTC ((((((....)))))) and answer again.
-35.1

* * *

# experiment_notes: melting temperature; fluorescence melt of hairpins on a sequencing array, two-state fit, raised by 9.35 °C to match UV melts
# applied_conditions: sodium 0.088 M
Measured Tm values are reported for all entries that follow.
Note: unit °C is implicit; provide only the numeric part.

Study these solved cases before continuing.
Any idea what Tm was measured for GTGGGAGCGAAAGCTCAC (((..(((....)))))) ?
62.9

Now consider GCATTGCGAAAGCGGTGC (((..((....))..))) and answer again.
58.8

Now consider GTAGGCGAAAGCCCATAC ((((((....)))..))) and answer again.
28.2

Next:
Any idea what Tm was measured for GATCTCAAAAGAGATC ((((((....)))))) ?
48.5

Now consider GATATAGAAATATATC ((((((....)))))) and answer again.
31.8

Now consider GAAGGGCGAAAGCCGTTC (((.(((....))).))) and answer again.
56.6

Now consider GCCCGGCGAAAGCCACGC ((..(((....)))..)) and answer again.
35.9

Now consider GCTTGACGAAAGTCCAGC (((.(((....))).))) and answer again.
49.9
